The entries below come with measured TGI values attached.
Test system: A498 renal
test summary: NCI tumour cell line growth inhibition, 48 h

[
  {
    "compound": "c1ccc(CC(Nc2cccnc2)c2ccccc2)cc1 (stereo not drawn)",
    "value reported": "> 100 µM"
  },
  {
    "compound": "CC1C(O)=C(O)c2ccccc2N1O (stereo not drawn)",
    "value reported": "> 100 µM"
  }
]

Identify TGI associated with the compound `O=C(Nc1ccc(Cl)cc1)c1cc(S(=O)(=O)N2CCNNC2=O)c(S)cc1Cl`
> 100 µM

###

System: OVCAR-8 ovarian
test summary: NCI tumour cell line growth inhibition, 48 h
quantity measured: TGI

Consider the following illustrative entries.
[
  {
    "compound": "O=C(CCCn1ccnc1[N+](=O)[O-])NCCn1cnc([N+](=O)[O-])n1",
    "quantity measured": "TGI",
    "value reported": "> 100 µM"
  },
  {
    "compound": "CC1CC(=O)Nc2ccccc2N1C(=O)C1CC1 (stereo unspecified)",
    "quantity measured": "TGI",
    "value reported": "> 100 µM"
  },
  {
    "compound": "COC(=O)Nc1nc2ccc(C(=O)c3ccc(F)cc3)cc2[nH]1",
    "quantity measured": "TGI",
    "value reported": "> 31.6 µM"
  },
  {
    "compound": "S=C1NNC2(C(=S)N1)c1ccccc1-c1ccccc12",
    "quantity measured": "TGI",
    "value reported": "> 10 µM"
  },
  {
    "compound": "CN1C2(c3ccccc3)C(C(=O)c3ccccc3)=C(C(=O)c3ccccc3)C1(c1ccccc1)c1c(-c3ccccc3)sc(-c3ccccc3)c12",
    "quantity measured": "TGI",
    "value reported": "> 100 µM"
  }
]

Next up:
Quickly give me recorded TGI for CC#CC#C/C=C1\C=CC2(OC=CC2O)O1 (stereo unspecified)
> 23.3 µM

Recorded values, source PubChem BioAssay (NCI).
